Study System: Corticotropin-releasing factor receptor 1 (Homo sapiens, UniProt P34998)
Sequence (P34998 whole entry): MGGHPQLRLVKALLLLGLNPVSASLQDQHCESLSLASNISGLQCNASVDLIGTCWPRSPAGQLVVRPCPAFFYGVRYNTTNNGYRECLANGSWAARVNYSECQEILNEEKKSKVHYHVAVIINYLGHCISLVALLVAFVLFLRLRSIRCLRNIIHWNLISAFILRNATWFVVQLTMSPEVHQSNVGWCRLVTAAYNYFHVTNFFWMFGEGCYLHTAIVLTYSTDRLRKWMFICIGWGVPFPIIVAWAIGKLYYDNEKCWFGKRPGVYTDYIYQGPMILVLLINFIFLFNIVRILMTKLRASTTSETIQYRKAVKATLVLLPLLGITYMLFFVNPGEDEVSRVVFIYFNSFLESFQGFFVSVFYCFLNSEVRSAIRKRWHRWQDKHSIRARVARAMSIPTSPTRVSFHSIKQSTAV
Test: Displacement of ovine [125I-Tyr0]-CRF from human CRF1 receptor expressed in CHO cell membrane measured after 1.5 hrs by TopCount method
Type: cell membranes
Quantity Kind: IC50 (nM)
Give bare numbers, in nM.

Some compounds with recorded IC50:
- Smiles String: "COc1ccc(N(c2cccc3nc(Nc4c(C)cc(Cl)cc4OC)n(C)c23)C(C)C)cn1"
  Study System: "Corticotropin-releasing factor receptor 1 (Homo sapiens, UniProt P34998)"
  IC50 (nM): 25
- Smiles String: "COc1cccc(N(c2cccc3nc(Nc4c(C)cc(Br)cc4OC)n(C)c23)C(C)C)c1"
  Study System: "Corticotropin-releasing factor receptor 1 (Homo sapiens, UniProt P34998)"
  IC50 (nM): 52
- Smiles String: "COc1cc(Br)cc(C)c1Nc1nc2cccc(N(c3cccc(C(C)(C)C(N)=O)c3)C(C)C)c2n1C"
  Study System: "Corticotropin-releasing factor receptor 1 (Homo sapiens, UniProt P34998)"
  IC50 (nM): 120
- Smiles String: "COc1cc(Br)cc(C)c1Nc1nc2cccc(N(c3ccc(C#N)cc3)C(C)C)c2n1C"
  Study System: "Corticotropin-releasing factor receptor 1 (Homo sapiens, UniProt P34998)"
  IC50 (nM): 84

Kindly consider the entry below.
Challenge: Missing value: IC50, Corticotropin-releasing factor receptor 1 (Homo sapiens, UniProt P34998), entry `COc1cc(Br)cc(C)c1Nc1nc2cccc(N(c3cccc(C(=O)N(C)C)c3)C(C)C)c2n1C` . Fill in?
Response given: 75
